Target: Cellular tumor antigen p53 (Homo sapiens) (UniProt P04637)
Sequence (P04637 whole entry, looked up): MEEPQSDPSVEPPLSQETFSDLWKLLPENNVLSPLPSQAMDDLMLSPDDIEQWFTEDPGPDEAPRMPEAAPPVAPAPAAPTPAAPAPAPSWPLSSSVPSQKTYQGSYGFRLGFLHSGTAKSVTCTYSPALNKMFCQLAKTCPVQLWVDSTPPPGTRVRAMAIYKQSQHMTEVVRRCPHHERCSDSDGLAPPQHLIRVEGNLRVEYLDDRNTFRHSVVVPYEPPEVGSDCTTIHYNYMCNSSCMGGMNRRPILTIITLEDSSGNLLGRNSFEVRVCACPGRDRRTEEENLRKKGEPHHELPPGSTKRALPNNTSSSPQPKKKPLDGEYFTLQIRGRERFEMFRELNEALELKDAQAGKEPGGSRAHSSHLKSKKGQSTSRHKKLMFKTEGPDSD
Test: nuclear p53 accumulation, HPV+ cells – imaging, p53-positive nuclei imaging, 24 h, 48 h (AID 1508601)
Conditions: 24/48 h, Library stock concentration: 10 mM, stronger effect = higher value
The whole screen tested about 5,700 compounds, of which about 85 (1%) were called active. The entries come from a sample that favours actives as a whole.
OBSERVED_PROPERTY: p53-positive nuclei, normalised (%)
Express it in %; write the number only.

COMPOUND: CCCCc1ccc(N=CNO)c(C)c1
MEASURED_ON: Cellular tumor antigen p53 (Homo sapiens) (UniProt P04637)
UNIT_ABBREVIATION: %
ENDPOINT_VALUE: -0.158
//
COMPOUND: CC(C)CC(=O)Nc1n[nH]c2c1CN(C(=O)C1CCN(C)CC1)C2(C)C
MEASURED_ON: Cellular tumor antigen p53 (Homo sapiens) (UniProt P04637)
UNIT_ABBREVIATION: %
ENDPOINT_VALUE: 3.79
//
COMPOUND: COc1ccc(-c2nc(N3CCOCC3)c3sc(CN(C)c4ncc(C(=O)NO)cn4)cc3n2)cn1
MEASURED_ON: Cellular tumor antigen p53 (Homo sapiens) (UniProt P04637)
UNIT_ABBREVIATION: %
ENDPOINT_VALUE: 81.6
//
COMPOUND: CCN(CC)c1ccc(C=NNC(=O)c2ccc(O)cc2)cc1
MEASURED_ON: Cellular tumor antigen p53 (Homo sapiens) (UniProt P04637)
UNIT_ABBREVIATION: %
ENDPOINT_VALUE: 1.02
//
COMPOUND: CC(C)C1C(=O)NC(CCCN=C(N)N)C(=O)NCC(=O)NC(CC(=O)O)C(=O)NC(Cc2ccccc2)C(=O)N1C (centres undefined)
MEASURED_ON: Cellular tumor antigen p53 (Homo sapiens) (UniProt P04637)
UNIT_ABBREVIATION: %
ENDPOINT_VALUE: -0.0215
//
COMPOUND: CN1CCC(c2c(O)cc(O)c3c(=O)cc(-c4ccccc4Cl)oc23)C(O)C1 (centres undefined)
MEASURED_ON: Cellular tumor antigen p53 (Homo sapiens) (UniProt P04637)
UNIT_ABBREVIATION: %
ENDPOINT_VALUE: 7.27
//
COMPOUND: CN(NC(=O)CC(=O)NN(C)C(=S)c1ccccc1)C(=S)c1ccccc1
MEASURED_ON: Cellular tumor antigen p53 (Homo sapiens) (UniProt P04637)
UNIT_ABBREVIATION: %
ENDPOINT_VALUE: 64.3
//
COMPOUND: O=C(Cc1ccc(-c2ccc(OCCN3CCOCC3)cc2)cn1)NCc1ccccc1
MEASURED_ON: Cellular tumor antigen p53 (Homo sapiens) (UniProt P04637)
UNIT_ABBREVIATION: %
ENDPOINT_VALUE: 4.55

Please look at the following compound next.
GET /value?item= `COc1ccc(-c2ccc3ncc4c(c3c2)n(-c2ccc(N3CCNCC3)c(C(F)(F)F)c2)c(=O)n4C)cn1` &field=p53-positive nuclei, normalised returns -0.138

The reported measurements were obtained from PubChem BioAssay AID1508601.
